- ASSAYED_SYSTEM: N-terminal HiBiT tagged BCL6 (Homo sapiens, UniProt P41182)
- Construct: expressed in transfected cells; host or cells: HT1080 (ATCC CCL-121), stably transduced with lentivirus pLV-UBC-N-HiBiT-BCL6-PGK-puro
- TEST_DETAILS: HiBiT based degradation assay
- Type: cell-based
- RECORDED_CONDITIONS: HT1080 cells expressing N-terminal HiBiT tagged BCL6; 5 hours of incubation; BCL6 degradation normalized with DMSO control
READOUT_TYPE: Ymin (5 hr)

Field: example entries. Status: answers known.
The compound listed as CNC(=O)COc1cc2cc(Nc3nc(N4CC5(CCC(Oc6cccc7c(C8CCC(=O)NC8=O)nn(C)c67)CC5)C4)ncc3Cl)cnc2n(C)c1=O (centres unmarked) has a reported Ymin (5 hr) of +++ (30% ≤ Ymin < 50%)

get_value(item= CNC(=O)COc1cc2cc(Nc3nc(N4CCC(CC5CCN(c6cccc7c(C8CCC(=O)NC8=O)nn(C)c67)CC5)CC4)ncc3Cl)cnc2n(C)c1=O (centres unmarked) , readout=Ymin (5 hr)) returns +++ (30% ≤ Ymin < 50%)

Lab note: CNC(=O)COc1cc2cc(Nc3cc(N4CCN(CC5CCN(c6cccc7c(C8CCC(=O)NC8=O)nn(C)c67)CC5)[C@H](CO)C4)ncc3Cl)cnc2n(C(C)C)c1=O (some centres unmarked) [Compound 233a] gave Ymin (5 hr) of ++++ (Ymin < 30%)

Ymin (5 hr) in this record for CNC(=O)COc1cc2cc(Nc3nc(N4CCC(CN5CCN(c6ccc7c(C8CCC(=O)NC8=O)nn(C)c7c6)CC5)CC4)ncc3Cl)cnc2n(C(C)C)c1=O (centres unmarked) : +++ (30% ≤ Ymin < 50%)

Per the record, CNC(=O)COc1cc2cc(Nc3nc(N4CCN(CC5CCN(c6cccc7c(C8CCC(=O)NC8=O)nn(C)c67)CC5)CC4)ncc3Cl)cnc2n(C(C)C)c1=O (centres unmarked) has Ymin (5 hr) of ++++ (Ymin < 30%)

Others:
CNC(=O)COc1cc2cc(Nc3nc(N4CCC(CN5C6CCC5CC(c5cccc7c(C8CCC(=O)NC8=O)nn(C)c57)C6)CC4)ncc3Cl)cnc2n(C)c1=O (centres unmarked) has a reported Ymin (5 hr) of ++++ (Ymin < 30%)

What the record says about CNC(=O)COc1cc2cc(Nc3nc(N4CC[C@@H](CN5CCN(c6cccc7c(C8CCC(=O)NC8=O)nn(C)c67)CC5)[C@@H](C)C4)ncc3Cl)cnc2n(C(C)C)c1=O (some centres unmarked) [Compound 177b] : Ymin (5 hr) is +++ (30% ≤ Ymin < 50%)

# compound CNC(=O)COc1cc2cc(Nc3nc(N4CC[C@H](CN5CCN(c6cccc7c(C8CCC(=O)NC8=O)nn(C)c67)CC5)[C@H](C)C4)ncc3Cl)cnc2n(C(C)C)c1=O (some centres unmarked) [Compound 177a] ; its Ymin (5 hr) = ++++ (Ymin < 30%)

For record CNC(=O)COc1cc2cc(Nc3nc(N4CCC(F)(CN5CCN(c6cccc7c(C8CCC(=O)NC8=O)nn(C)c67)C[C@@H]5C)CC4)ncc3Cl)cnc2n(C(C)C)c1=O (some centres unmarked) [Compound 189a] the listed Ymin (5 hr) is ++++ (Ymin < 30%)

Record CNC(=O)COc1cc2cc(Nc3nc(N4CCC(CN5CCN(c6ccc7c(C8CCC(=O)NC8=O)nn(C)c7c6)C[C@@H]5C)CC4)ncc3Cl)cnc2n(C(C)C)c1=O (some centres unmarked) [Compound 215b] . Reported Ymin (5 hr): +++ (30% ≤ Ymin < 50%)
